Sourced from patent US8895585B2

- System: THP-1 cells
- PROCEDURE TEXT: TNFα generation assay
- Type: cell-based, human
- CONDITION PARAMETERS: Homo sapiens, THP-1, THP-1 cells; Table 22; read-out: IC50 in TNFα generation assay
- Procedure: THP-1 cells (2×10^5 cells/ml), which were human monocytoid cells, were cultured in the presence of 10 ng/ml IFN-γ (Roche) for 2 days, so that the cells were induced to differentiate into macrophage-like cells. […] Thereafter, the cultured solution was recovered, and the amount of TNFα secreted into the culture solution was then measured by the ELISA method (Roche/R & D Systems) or the AlphaLISA method (PerkinElmer).
pIC50: −log10 of the molar value.
Record form. Attribute: pIC50. Fill in for each entry.

[ask] Indicate its recorded pIC50; the molecule in question is `CCC[C@@H](Nc1nc(Nc2ccnc(-c3ccc(OC)cc3F)c2)c(C(N)=O)cc1F)[C@H](C)N`
[reply] 6.70 to 6.89

[ask] Indicate its recorded pIC50; the molecule in question is COCCn1ncc2cc(Nc3nc(N[C@@H]4CCCC[C@@H]4N)c(F)cc3C(N)=O)ccc21 (relative stereo)
[reply] 6.89 to 7.19

[ask] Indicate its recorded pIC50; the molecule in question is `CCC[C@@H](Nc1nc(Nc2cncc(-c3cccc(OC)c3F)c2)c(C(N)=O)cc1F)[C@H](C)N`
[reply] > 7.19

[ask] Indicate its recorded pIC50; the molecule in question is `CCn1ncc2c(Nc3nc(N[C@H](CC4CC4)[C@H](C)N)c(F)cc3C(N)=O)cccc21`
[reply] 6.89 to 7.19

[ask] Indicate its recorded pIC50; the molecule in question is `CCC[C@@H](Nc1nc(Nc2ccc3nc(C)c(C)nc3c2)c(C(N)=O)cc1F)[C@H](C)N`
[reply] 6.89 to 7.19

[ask] Indicate its recorded pIC50; the molecule in question is COc1ncc(Nc2nc(NC3CCCCC3N)c(F)cc2C(N)=O)cc1-n1nccn1 (stereo not shown)
[reply] 6.89 to 7.19

[ask] Indicate its recorded pIC50; the molecule in question is `NC(=O)c1cc(F)c(NCC2(N)CC2)nc1Nc1ccc2ncccc2c1`
[reply] 6.70 to 6.89
